Source listed as ChEMBL document CHEMBL6103564.

experiment: in vivo; conditions: ICR, mouse, iv, 5 mg/kg
observed-property: Vd (L/kg)
Quick reminder: number only, in L/kg, skip the unit.

Req: Give the value of Vd reported for the following: COCCOc1ccc(C(N)=O)c(-c2c(Cl)ccc3c2C[C@@](CNCCC2CCN(c4ccc5c(c4)C(=O)N(C4CCC(=O)NC4=O)C5=O)CC2)(c2ccccc2)O3)c1F (stereo partly specified)
Resp: 11.5

====

experiment: in vivo; details: ICR, mouse, iv, 5 mg/kg
observed-property: AUC(0-t)
Answer format: value, then unit.

Req: Tell me measured AUC(0-t) for COCCOc1ccc(C(N)=O)c(-c2c(Cl)ccc3c2C[C@@](CNCCC2CCN(c4ccc5c(c4)C(=O)N(C4CCC(=O)NC4=O)C5=O)CC2)(c2ccccc2)O3)c1F (stereo partly specified) please.
Resp: 1220 ng·h/mL

====

assay: in vivo; conditions: ICR, mouse, po, 5 mg/kg
observed-property: MRT (min)
# value in min; strip the unit string

Req: Quick one: give measured MRT for COCCOc1ccc(C(N)=O)c(-c2c(Cl)ccc3c2C[C@@](CNCCC2CCN(c4ccc5c(c4)C(=O)N(C4CCC(=O)NC4=O)C5=O)CC2)(c2ccccc2)O3)c1F (stereo partly specified)
Resp: 30.6

====

assay: in vivo; settings: ICR, mouse, iv, 5 mg/kg
observed-property: MRT
The reply must contain the numeric value and, after it, the unit.

Req: State its MRT: COCCOc1ccc(C(N)=O)c(-c2c(Cl)ccc3c2C[C@@](CNCCC2CCN(c4ccc5c(c4)C(=O)N(C4CCC(=O)NC4=O)C5=O)CC2)(c2ccccc2)O3)c1F (stereo partly specified)
Resp: 41.4 min

====

test: in vivo; conditions: ICR, mouse, iv, 5 mg/kg
observed-property: clearance (mL/min/kg)
Output spec: scalar in mL/min/kg, unitless text.

Req: Return value of clearance for input COCCOc1ccc(C(N)=O)c(-c2c(Cl)ccc3c2C[C@@](CNCCC2CCN(c4ccc5c(c4)C(=O)N(C4CCC(=O)NC4=O)C5=O)CC2)(c2ccccc2)O3)c1F (stereo partly specified) , no commentary.
Resp: 70.6

====

experiment: in vivo; conditions: ICR, mouse, iv, 5 mg/kg
observed-property: AUC(0-inf) (ng·h/mL)
Please respond with the number in ng·h/mL and leave the unit unwritten.

Req: Query AUC(0-inf) for COCCOc1ccc(C(N)=O)c(-c2c(Cl)ccc3c2C[C@@](CNCCC2CCN(c4ccc5c(c4)C(=O)N(C4CCC(=O)NC4=O)C5=O)CC2)(c2ccccc2)O3)c1F (stereo partly specified)
Resp: 1240

====

test: in vivo; settings: ICR, mouse, po, 5 mg/kg
observed-property: AUC(0-t) (ng·h/mL)
# number only, unit ng·h/mL dropped from output

Req: State its AUC(0-t): COCCOc1ccc(C(N)=O)c(-c2c(Cl)ccc3c2C[C@@](CNCCC2CCN(c4ccc5c(c4)C(=O)N(C4CCC(=O)NC4=O)C5=O)CC2)(c2ccccc2)O3)c1F (stereo partly specified)
Resp: 5.39
